- Protocol Details: CCTE_Shafer_MEA_dev_correlation_coefficient_mean: CCTE's Neural Network Formation Assay for Mean Correlation Coefficient, Shafer Lab (AID 2284093)
Activity calls are given as the source filed them. Rule for the calls: active = hit-call score of the fitted dose curve at least 0.9, where 1 is the maximum; inactive = score below 0.9.
Labels: active, inactive

- Smiles Record: "O=c1[nH]cc(F)c(=O)[nH]1"
  Classification: "active"
- Smiles Record: "CC(=O)Oc1ccccc1C(=O)O"
  Classification: "inactive"
- Smiles Record: "OC[C@@H](O)[C@@H](O)[C@H](O)[C@H](O)CO"
  Classification: "inactive"
- Smiles Record: "CC(C)c1ccc(C(=O)N=C(N)N)cc1S(C)(=O)=O"
  Classification: "inactive"
- Smiles Record: "Cc1cc(=O)[nH]c(=S)[nH]1"
  Classification: "inactive"

FYI, the data here is from PubChem BioAssay (EPA / NIEHS).
